# Tested on: KM12
# testDetails: NCI tumour cell line growth inhibition, 48 h
Activity calls are given as the source filed them. No stated cut-off is given here; in the data, active = GI50 up to about 1.1 µM and inactive = higher.
Readings of GI50 for the listed molecules
endpointName: GI50

• COCCOCN(C(=O)C1=CCC2(CC1)OCCO2)c1ccccc1I = > 50 µM (inactive)
• O=C1/C(=C\c2cccc(Oc3ccccc3)c2)SC(c2ccccc2)N1c1cc(Cl)ccc1Cl (stereo not drawn) = 18.2 µM (inactive)
• COc1ccc(N2C(=O)C(Cl)C2c2cc3cc(Br)ccc3nc2Cl)cc1 (stereo not drawn) = 10.9 µM (inactive)

====

# System: OVCAR-4
# testDetails: NCI tumour cell line growth inhibition, 48 h
Active and inactive are the calls of the source. No stated cut-off is given here; in the data, active = GI50 up to about 1.1 µM and inactive = higher.
Readings of GI50 for the listed compounds
endpointName: GI50

• Cc1ccc(-c2cc(-c3ccc(Cl)cc3)nc(/N=C3\C(=O)N(CN4CCOCC4)c4ccccc43)n2)cc1 = 28.7 µM (inactive)
• O=C(/C=C/c1ccccc1)NNC(=O)c1c(Cl)c(Cl)c(Cl)c(Cl)c1-c1nc2ccccc2[nH]1 = 49.4 µM (inactive)
• CC(=O)OC1COC(N2CCc3ccccc32)C(OC(C)=O)C1OC(C)=O (centres undefined) = > 100 µM (inactive)
• O=C(c1ccccc1)c1cccc(C(=O)c2ccccc2)c1 = > 100 µM (inactive)

====

# Tested on: OVCAR-5
# testDetails: NCI tumour cell line growth inhibition, 48 h
Active and inactive are the calls of the source. Rule as the data show it: active = GI50 up to about 1.1 µM and inactive = higher.
endpointName: GI50

- Nc1c2c(nc3cc(F)c(F)cc13)CCC2: 49.9 µM (inactive)
- CC(=O)N(C)c1ccc(Nc2ccnc3ccc4nn(C)nc4c23)cc1: 30.1 µM (inactive)
- CN(C)CC/C(=N\Nc1ccc(Cl)c(Cl)c1)c1ccccc1: 2.56 µM (inactive)
- Cc1c2cc[n+](C)cc2c(C)c2c1[nH]c1ccc(OC(C)(C)C)cc12: > 100 µM (inactive)
- CC1c2cc(c3c(c2O)CN([C@@H](C)C2CCCCC2)CO3)C(C)c2cc(c3c(c2O)CN([C@@H](C)C2CCCCC2)CO3)C(C)c2cc(c3c(c2O)CN([C@@H](C)C2CCCCC2)CO3)C(C)c2cc1c1c(c2O)CN([C@@H](C)C2CCCCC2)CO1 (stereo not given in full): 1.78 µM (inactive)
- Cc1ccc2c(c1)C(=O)C1(C2)Cc2ccc(C)cc2C1=O: > 100 µM (inactive)
- O=C1Nc2ccccc2C(=O)/C1=C/NC(=S)NCCc1ccccc1: > 100 µM (inactive)
- COCCOCN(C(=O)C1=CCC2(CC1)OCCO2)c1ccccc1I: > 50 µM (inactive)
- C=C(C)C1CCC(C(=O)O)CC1 (stereo not given): > 100 µM (inactive)
- Sc1ncnc2c1ncn2Cc1ccco1: > 100 µM (inactive)
- CCCCCCCC(=O)OCC1OC(n2cc(F)c(=O)[nH]c2=O)C(N)C(O)C1O (stereo not given): > 100 µM (inactive)
- C=C(Cl)/C(=C\Br)CCC(Cl)C(C)C.C=C(Cl)/C(=C\Cl)CCC(Cl)C(C)C (stereo not given): 20.5 µM (inactive)
- CCOP(C)(=O)C(Cc1c[nH]c2ccccc12)C(=O)O (stereo not given): > 100 µM (inactive)
- CCOC(=O)c1c(-c2ccc(OC)cc2)c(C#N)c(=S)n(C2OC(COC(C)=O)C(OC(C)=O)C(OC(C)=O)C2OC(C)=O)c1C (stereo not given): > 100 µM (inactive)
- Cc1nnc2nc(-c3ccc(Cl)cc3Cl)cc(-c3ccc(Cl)cc3)n12: > 100 µM (inactive)
- CCOC(=O)C1(C#N)C(c2ccccc2)CC(O)(c2ccc(Cl)cc2)C(C(=O)c2ccc(Cl)cc2)C1c1ccccc1 (stereo not given): > 100 µM (inactive)
- CCCCCCCCCCCCOCCCOP(=O)([O-])OCC[N+](C)(C)C: 21.1 µM (inactive)
- N#CC1C(=O)C(=O)N(c2ccccc2)C1=O (stereo not given): > 100 µM (inactive)
- CCCCCCCCCCCCCCCCCCNc1ccn(C2OC(COP(=O)(O)OCC3OC(n4ccc(N)nc4=O)C(O)C3O)C(O)C2O)c(=O)n1 (stereo not given): 98.6 µM (inactive)
- C[C@]12CC[C@H](OC3OC(CO)C(O)C(O)C3O)C[C@H]1CC[C@@H]1[C@@H]2CC[C@]2(C)[C@@H](C3=CCOC3=O)CC[C@]12O (stereo not given in full) [ACTODIGIN]: > 50 µM (inactive)
- CC12CC3CC(C1)CC(N=[N+]=[N-])(C3)C2: > 100 µM (inactive)
- C=C1c2nc3ccccc3n2C=C(c2ccccc2)N1c1ccccc1: > 100 µM (inactive)
- O=C(O)c1nc(-c2ccc(Cl)c(Cl)c2)nc2ccc(Cl)cc12: > 100 µM (inactive)
- CN1Cc2cc3c(cc2-c2ccccc21)OCO3: > 100 µM (inactive)
- O=C(N/C(=C\c1ccc(Br)cc1)c1nc2ccccc2[nH]1)c1ccccc1: 14.9 µM (inactive)
- OCCN1c2ccccc2Sc2ccccc21: > 10 µM (inactive)
- COc1cc(OC2OC(CO)C(O)C(O)C2O)c2c(O)c3c(=O)cc(C)oc3cc2c1 (stereo not given): > 100 µM (inactive)
- COC(=O)CCc1cc(OC)c2c(c1)C(C(=O)OC)C(c1ccc(OC)c(OC)c1)O2 (stereo not given): > 79.1 µM (inactive)
- Nc1nc(CCc2n[nH]c(N)n2)n[nH]1: > 100 µM (inactive)
- CP(=O)(O)C(N)c1ccccc1 (stereo not given): > 100 µM (inactive)
